- System: MCF7
- assay-protocol: Antiproliferative activity against Human MCF-7 Breast cancer cell line in vitro.
- Type: functional, cell-based
pIC50: −log10 of the molar value.
outcome-measure: pIC50

INSERT INTO assay_data (test_smiles, recorded_value) VALUES
  ('CC/C(=C(\Cc1ccccc1)c1ccc(OCN(C)C)cc1)c1ccccc1', 4.66);
